Source: patent US20260055066A1

assay: Comparative pharmacokinetic test of the formulation in beagle dog, Experimental Example 8; format: in vivo; settings: beagle, dog, plasma, iv, 2 mg/kg, 2 mg/kg solution (iv), 10% HP-PCD, single dose, beagle dog plasma
MEASURE: Cmax (ng/mL)
Give a bare numeral; the unit ng/mL is implied.

Request: Fill in the blank: the reported Cmax of C[C@@H]1CN(c2ccc(S(C)(=O)=O)cc2F)CCN1c1nccc(C(=O)NC2C3CC4CC2CC(O)(C4)C3)n1 (stereo partly shown) is ____.
Response: 1160

----------
test: Comparative pharmacokinetic test of the formulation in beagle dog, Experimental Example 8; assay type: in vivo; details: beagle, dog, plasma, iv, 2 mg/kg, 2 mg/kg solution (iv), 10% HP-PCD, single dose, beagle dog plasma
MEASURE: Tmax (min)
Just the number please, in min, no unit attached.

Request: For C[C@@H]1CN(c2ccc(S(C)(=O)=O)cc2F)CCN1c1nccc(C(=O)NC2C3CC4CC2CC(O)(C4)C3)n1 (stereo partly shown) [chemical formula 1] , what is its reported Tmax?
Response: 15
